Endpoint Label: melting point

Molecule: O=C1CN(Cc2ccccc2)C(=O)[C@@H](Cc2c[nH]c3ccccc23)N1
Endpoint Label: melting point
Assay Result: 207 to 208 °C
--
Molecule: COC(=O)n1cc(Cl)c(-c2cc(Cl)cc(Cl)c2)n1
Endpoint Label: melting point
Assay Result: 144 °C
--
Molecule: O=C(Nc1cn(C2CCCCO2)nc1C(=O)NCC(O)Cc1ccccc1)c1ccccn1 (stereo not given)
Endpoint Label: melting point
Assay Result: 132 to 134 °C
--
Molecule: OCCNc1nc(NCCO)nc(Nc2ccccc2Cl)n1
Endpoint Label: melting point
Assay Result: 108 to 110 °C
--
Molecule: CN1CCc2ccccc21
Endpoint Label: melting point
Assay Result: 88 to 90 °C

## Input Item under review: `O=C(NCC(F)(F)F)c1ccc(-c2ccc3nnn(Cc4ccc5ncccc5c4)c3n2)cc1F` . Reported melting point?
## Output 194 to 196 °C

## Input Item under review: `COC(=O)Nc1ccccc1C(=O)Nc1nnn[nH]1` . Reported melting point?
## Output 236 to 237 °C

## Input Item under review: `COC=C(C(=O)OC)N(C)N1CSC(Br)=C1c1ccc(Br)cc1` . Reported melting point?
## Output 112 °C

## Input Item under review: O=C1N(c2cc(Cl)cc(Cl)c2)C(=O)C2(Cc3ccc(Br)cc3)CCCCN12 (stereo not given) . Reported melting point?
## Output 129 °C

## Input Item under review: `COc1ccc(CCNc2cc(-n3cccn3)nc(-c3cccs3)n2)cc1OC` . Reported melting point?
## Output 116 to 117 °C

----------
Endpoint Label: melting point

Compound: CC(C)OC(=O)Cn1c(=O)n(C)c(=O)n(-c2cc(N3C(=O)c4cccc(F)c4C3=O)c(F)cc2Cl)c1=O
melting point: 119 to 125 °C
--
Compound: COc1ccc(CC(S)C(N)=O)cc1C(=O)NCc1ccc(C(F)(F)F)cc1 (stereo not given)
melting point: 159 to 161 °C
--
Compound: Cc1csc2c1CCN(C)CC2c1ccccc1 (stereo not given)
melting point: 40 °C
--
Compound: O=[N+]([O-])c1ccc(-c2cc[nH]n2)cc1
melting point: 196 to 197 °C

Now turn to the next compound.
## Input Item under review: `CCCCCn1cc(CCCC)n(Cc2ccc(-c3ccccc3-c3nnn[nH]3)nc2)c1=O` . Reported melting point?
## Output 162 to 164 °C

----------
Property: melting point; scope: individual compounds

Look over these answered cases.
Compound: O=C1N(Cc2ccccc2)Cc2cnc(Nc3ccc(N4CCCCC4)cn3)nc2N1C1CCCC1
Assay Result: 194 to 196 °C

Compound: O=C(O)c1cccc(Oc2cccc(-c3nn(Cc4ccc(C(F)(F)P(=O)(O)O)c(Br)c4)c(=Nc4ccc(Cl)c(Cl)c4)s3)c2)c1
Assay Result: 210 to 215 °C

Compound: CC(C)(CO)c1cnc(-c2nn(-c3ccc(F)cc3F)c3c2C2CCC3C2)o1 (stereo not drawn)
Assay Result: 66 to 68 °C

Compound: O=C(OCc1ccccc1)C1CC(=C2NC(=O)N(c3ccccc3)C2=O)c2ccc(Cl)cc2N1 (stereo not drawn)
Assay Result: > 220 °C

Compound: Cc1cc(OC2CCN(C(=O)OC(C)(C)C)CC2)ccc1[N+](=O)[O-]
Assay Result: 104 to 106 °C

Compound: CN1CCN=C(c2ccccc2)c2cc(C#N)ccc21
Assay Result: 149 to 150 °C

Compound: CCCn1c(=O)c2[nH]c(C(C)(C)C)nc2n(CCN(C)C(C)=O)c1=O
Assay Result: 149 to 152 °C

Now turn to the next compound.
## Input Item under review: `O=C1N=C(N2CCOCC2)SC1=Cc1ccc(F)c(-c2ccc(O)c(C34CC5CC(CC(C5)C3)C4)c2)c1` . Reported melting point?
## Output 338 to 343 °C

----------
Property: melting point; scope: individual compounds

Look over these answered cases.
Smiles Input: CCCN(CCC)c1c2c(nn1C)N(c1c(C)cc(C)cc1Cl)CCC2
melting point: 90 to 91 °C

Smiles Input: COC(=O)c1cc2cc(OCc3cccnc3)ccc2s1
melting point: 126 to 127 °C

Smiles Input: COc1ccc(C=C2NC(C(=O)Cc3cc(OC)c(OC)c(OC)c3)=Cc3ccccc32)cc1OC
melting point: 164 to 170 °C

## Input Item under review: `COC(OC)c1cnc(N2C(=O)c3ccccc3C2=O)c(C#N)n1` . Reported melting point?
## Output 115 to 116 °C

## Input Item under review: `Cc1ccc(OCc2nc(-c3ccccc3)oc2C)cn1` . Reported melting point?
## Output 103 to 104 °C

## Input Item under review: `COc1cc(C(=O)N[C@@H](CCC(=O)O)C(=O)O)ccc1NCCCc1c(N)nc(N)[nH]c1=O` . Reported melting point?
## Output 165 to 184 °C

----------
Endpoint Label: melting point

Compound: CSC(=CC(=O)c1cnccn1)SC
melting point: 155 °C

## Input Item under review: `CC1=C(c2ccccc2)C(=O)N(C(C)(C)c2cccc(Cl)c2)CC1` . Reported melting point?
## Output 117 to 118 °C

## Input Item under review: `CC(C)n1cc(C(=O)Nc2nncs2)c2ccc(Cl)cc21` . Reported melting point?
## Output 274 to 275 °C

## Input Item under review: `CC(C)C(=O)Nc1ccc(I)c(C(F)(F)F)c1` . Reported melting point?
## Output 143 to 145 °C

## Input Item under review: `CCCC(=O)OCC(=O)c1ccc(-c2ccccc2)cc1` . Reported melting point?
## Output 82 °C

## Input Item under review: `O=C(c1ccc(Cl)cc1)c1sc2cc(O)ccc2c1-c1ccccc1` . Reported melting point?
## Output 222 °C

## Input Item under review: `COCCCn1nnnc1-c1cc(-c2ccc(C(F)(F)F)cc2)c(O)cc1O` . Reported melting point?
## Output 98 to 104 °C

## Input Item under review: CCC(CC)CC(C)(NC(CO)c1ccccc1)C(=O)O (configuration not stated) . Reported melting point?
## Output 149 °C

----------
Property: melting point; scope: individual compounds

Look over these answered cases.
Compound: O=[N+]([O-])c1cc(Br)cc2c1[nH]c1ccc(Br)cc12
melting point: 252 to 256 °C
--
Compound: O=CN1CCN(c2nc3cccccc-3n2)CC1
melting point: 170 to 173 °C
--
Compound: O=C(Nc1ccc(O[C@H]2CC[C@H](C(=O)O)CC2)cc1)c1nnc(Nc2cc(F)c(F)cc2F)o1
melting point: 251 to 253 °C
--
Compound: CNC(=S)C1(c2cccnc2)CCCCCC1=O (stereo not given)
melting point: 144 to 146 °C
--
Compound: O=c1ccn(-c2cccc(C(F)(F)F)c2)nc1-c1cc(C(F)(F)F)nn1-c1ccccc1
melting point: 190 to 191 °C
--
Compound: O=[N+]([O-])c1cn2c(n1)O[C@@H](COc1ccc(N3CCN(Cc4ccc(Oc5ccc(C(F)(F)F)cn5)cc4)CC3)cc1)CC2
melting point: 229 to 230 °C
--
Compound: OCCn1nc(-c2ccc(F)cc2)c(-c2ccncc2)c1C1CC1
melting point: 155 to 157 °C
--
Compound: O=C(O)CCc1nc(-c2ccccc2)cs1
melting point: 72 to 73 °C
--
Compound: C=C1C(=O)OC2OC3(C)CCC4C(C)CCC1C24OO3 (stereo not given)
melting point: 161 to 162 °C

Now turn to the next compound.
## Input Item under review: `Cc1cc(CCCCCOc2c(Cl)cc(-c3cccs3)cc2Cl)on1` . Reported melting point?
## Output 45 to 47 °C

----------
Endpoint Label: melting point

Smiles Input: CCCCCCCCCCCCCCCCCCCCCCOC(=O)P(=O)(OC)OC
melting point: 60 to 61 °C

Smiles Input: COc1cc(CNC(=O)c2ccccc2)cc(OC)c1OC
melting point: 113 to 115 °C

## Input Item under review: `COC(=O)OC1=C(c2cc(C)ccc2C)C(=O)NC12CCN(OC)CC2` . Reported melting point?
## Output 186 to 188 °C

----------
Property: melting point; scope: individual compounds

Look over these answered cases.
Smiles Input: N#CC(=O)c1ccccc1Br
melting point: 64 °C
--
Smiles Input: COC(=C(C#N)C(=O)Nc1ccccc1)c1cccn1C
melting point: 121 to 122 °C
--
Smiles Input: CCN(C)C(=O)N(C)C(=O)Nc1ccccc1
melting point: 88.5 to 90.5 °C
--
Smiles Input: O=C(O)Cc1nc(-c2ccc(Cl)cc2)oc1-c1ccsc1
melting point: 218 to 219 °C

Now turn to the next compound.
## Input Item under review: `O=C(c1ccccc1C(c1ccc(O)cc1)c1ccc(O)cc1)N1CCN(c2ccccc2Cl)CC1` . Reported melting point?
## Output > 300 °C

----------
Property: melting point; scope: individual compounds

Compound: CC(C)(C)CN1C(=O)[C@@H](CCO)O[C@H](c2ccccc2Cl)c2cc(Cl)ccc21 (relative stereo)
Assay Result: 157 to 159 °C
--
Compound: C[C@]1(COc2ccc(N3CCC(N4CCN(c5ccc(Cl)cc5)CC4)CC3)cc2)Cn2cc([N+](=O)[O-])nc2O1
Assay Result: 247 to 249 °C
--
Compound: COc1ccc2c(c1)C(CCNC(=O)C(F)(F)F)=CC2
Assay Result: 87 to 88 °C

Now turn to the next compound.
## Input Item under review: Cc1[nH]c(=O)cc2c1CC(c1ccncc1)CC2 (centres undefined) . Reported melting point?
## Output > 300 °C

Data origin, for the record: a melting point compilation (Tetko et al.; mined from patent text by program, amines drawn as free bases though some values may be those of a salt)
